Provide the recorded DC50 for the entries that follow.
Molecular target: KRAS^G12D protein (Homo sapiens, UniProt P01116, G12D)
Construct: host or cells: Aspc-1 (AsPC-1) cells
Sequence (P01116 1-188 isoform P01116-2 G12D): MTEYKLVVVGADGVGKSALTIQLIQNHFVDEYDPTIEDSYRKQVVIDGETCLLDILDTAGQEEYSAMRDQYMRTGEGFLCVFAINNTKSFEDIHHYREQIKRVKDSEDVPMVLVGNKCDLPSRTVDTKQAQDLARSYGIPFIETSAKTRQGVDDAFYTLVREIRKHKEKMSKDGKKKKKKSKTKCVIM
Assay: Protein degradation study (western blot) in Aspc-1 cells
Type: cell-based
Settings: Aspc-1 cells; half-maximum degradation concentration; read-out: DC50 of compounds induced Ras G12D protein degradation

# compound, target, recorded.result
rows = [
    ("C#Cc1c(F)ccc2cc(O)cc(-c3ncc4c(N5CC6CCC(C5)N6)nc(OCC5(CN6CCC7(CCC(N8CCC(c9ccc%10c(C%11CCC(=O)NC%11=O)nn(C)c%10c9)CC8)CC7)CC6)CC5)nc4c3F)c12 (stereo not shown) [Compound 33a]", "KRAS^G12D protein (Homo sapiens, UniProt P01116, G12D)", "< 10 nM"),
    ("C#Cc1c(F)ccc2cc(O)cc(-c3ncc4c(N5CC6CCC(C5)N6)nc(OCC5(CN6CCC7(CC6)CC(CN6CCC(c8ccc9c(C%10CCC(=O)NC%10=O)nn(C)c9c8)CC6)C7)CC5)nc4c3F)c12 (stereo not shown) [Compound 29a]", "KRAS^G12D protein (Homo sapiens, UniProt P01116, G12D)", "< 10 nM"),
]

Please report DC50 for every entry that follows.
1. Cn1nc(N2CCC(=O)NC2=O)c2cc(F)c(C3CCN(C4CC5(CCN(CC6(COc7nc(N8CC9CCC(C8)N9)c8cc(Cl)c(-c9ccc(F)c%10sc(N)c(C#N)c9%10)c(F)c8n7)CC6)CC5)C4)CC3)cc21 [Compound 40a]
2. C#Cc1c(F)ccc2cc(O)cc(-c3ncc4c(N5CC6CCC(C5)N6)nc(OCC5(CN6CCC7(CC6)CC(N6CCC(c8ccc9c(N%10CCC(=O)NC%10=O)nn(C)c9c8)CC6)C7)CC5)nc4c3F)c12

1: < 10 nM; 2: < 10 nM

---

Target: KRAS^G12D protein (Homo sapiens, UniProt P01116, G12D)
Construct: host or cells: Aspc-1 (AsPC-1) cells
Test: Protein degradation study (western blot) in Aspc-1 cells
Type: cell-based
Details: ASPC1, 24 h, Aspc-1 cells treated with 0.005 μM compound, 24 hours; read-out: Rate of degradation
measurement.label: inhibition at 0.005 µM

# compound, recorded.result
rows = [
    ("C#Cc1c(F)ccc2cc(O)cc(-c3ncc4c(N5CC6CCC(C5)N6)nc(OCC5(CN6CC7(CCC(N8CCC(c9ccc%10c(C%11CCC(=O)NC%11=O)nn(C)c%10c9)CC8)CC7)C6)CC5)nc4c3F)c12 (stereo not drawn) [Compound 31a]", "> 60%"),
    ("C#Cc1c(F)ccc2cc(O)cc(-c3ncc4c(N5CC6CCC(C5)N6)nc(OCC5(CN6CCC(N7CC(CN8CCC(c9ccc%10c(C%11CCC(=O)NC%11=O)nn(C)c%10c9)CC8)C7)CC6)CC5)nc4c3F)c12 (stereo not drawn) [Compound 30a]", "> 60%"),
]

What value of inhibition at 0.005 µM on KRAS^G12D protein (Homo sapiens, UniProt P01116, G12D) does "C#Cc1c(F)ccc2cc(O)cc(-c3ncc4c(N5CC6CCC(C5)N6)nc(OCC5(CN6CCC7(CC6)CC(N6CCC(c8ccc9c(N%10CCC(=O)NC%10=O)nn(C)c9c8)CC6)C7)CC5)nc4c3F)c12" have?
> 60%
